Data origin: ChEMBL document CHEMBL3797048

System: Staphylococcus epidermidis
experimental_protocol: Antibacterial activity against Staphylococcus epidermidis ATCC 49134 after 18 hrs by microdilution method
Assay type: functional
protocol_conditions: ATCC 49134, 18 h
Each item that follows carries a reported MIC.
Report the figure in µg/mL without appending any unit label.

[[record]]
compound_string = "CCOC(=O)[C@H](CCCNC(=N)N)NCc1c2c(O)c3c(O)c(C)c4c(c3c1O)C(=O)[C@@](C)(O/C=C/[C@H](OC)[C@@H](C)[C@@H](OC(C)=O)[C@H](C)[C@H](O)[C@H](C)[C@@H](O)[C@@H](C)/C=C/C=C(/C)C(=O)N2)O4"
unit = "µg/mL"
observed_measurement = 0.5


Exam item: Fill blank: measured MIC of the compound CO[C@H]1/C=C/O[C@@]2(C)Oc3c(C)c(O)c4c(O)c(c(CN[C@@H](Cc5c[nH]c6ccccc56)C(=O)OCc5ccccc5)c(O)c4c3C2=O)NC(=O)/C(C)=C\C=C\[C@H](C)[C@H](O)[C@@H](C)[C@@H](O)[C@@H](C)[C@H](OC(C)=O)[C@@H]1C is ____.
Marked response: 0.25

Exam item: Fill blank: measured MIC of the compound CO[C@H]1/C=C/O[C@@]2(C)Oc3c(C)c(O)c4c(O)c(c(CN[C@@H](Cc5ccccc5)C(=O)OCc5ccccc5)c(O)c4c3C2=O)NC(=O)/C(C)=C\C=C\[C@H](C)[C@H](O)[C@@H](C)[C@@H](O)[C@@H](C)[C@H](OC(C)=O)[C@@H]1C is ____.
Marked response: 0.25

Exam item: Fill blank: measured MIC of the compound COC(=O)[C@H](Cc1ccccc1)NCc1c2c(O)c3c(O)c(C)c4c(c3c1O)C(=O)[C@@](C)(O/C=C/[C@H](OC)[C@@H](C)[C@@H](OC(C)=O)[C@H](C)[C@H](O)[C@H](C)[C@@H](O)[C@@H](C)/C=C/C=C(/C)C(=O)N2)O4 is ____.
Marked response: 0.031
